- TEST TARGET: DYRK1A (Homo sapiens, UniProt Q13627)
I'd appreciate it if you marked entries condition met when IC50 is lower than 1000 nM and condition not met when it is not.

Check out these entries, answers already filled in.
INSERT INTO measurements (compound, test_target, class) VALUES
  ('CC(=O)Nc1nc2ccc(C(F)(F)F)cc2s1 [Compound 01-90]', 'DYRK1A (Homo sapiens, UniProt Q13627)', 'condition not met'),
  ('CC(=O)Nc1nc2ccc(C#N)cc2s1 [Compound 01-94]', 'DYRK1A (Homo sapiens, UniProt Q13627)', 'condition not met'),
  ('CC(=O)Nc1nc2ccc([N+](=O)[O-])cc2s1 [Compound 13-10]', 'DYRK1A (Homo sapiens, UniProt Q13627)', 'condition met');

Dear reviewer, please state whether CC(=O)Nc1nc2ccc(O)cc2s1 [Compound 01-71] has IC50 strictly beneath 1000 nM.
condition not met

Just wondering, is IC50 of COc1ccc2sc(NC(C)=O)nc2c1 [Compound 03-21] below 1000 nM?
condition met

----------
residual kinase activity, PKD1 overview
- TEST TARGET: PKD1 (Homo sapiens, UniProt Q15139)
- Sequence (Q15139 whole entry): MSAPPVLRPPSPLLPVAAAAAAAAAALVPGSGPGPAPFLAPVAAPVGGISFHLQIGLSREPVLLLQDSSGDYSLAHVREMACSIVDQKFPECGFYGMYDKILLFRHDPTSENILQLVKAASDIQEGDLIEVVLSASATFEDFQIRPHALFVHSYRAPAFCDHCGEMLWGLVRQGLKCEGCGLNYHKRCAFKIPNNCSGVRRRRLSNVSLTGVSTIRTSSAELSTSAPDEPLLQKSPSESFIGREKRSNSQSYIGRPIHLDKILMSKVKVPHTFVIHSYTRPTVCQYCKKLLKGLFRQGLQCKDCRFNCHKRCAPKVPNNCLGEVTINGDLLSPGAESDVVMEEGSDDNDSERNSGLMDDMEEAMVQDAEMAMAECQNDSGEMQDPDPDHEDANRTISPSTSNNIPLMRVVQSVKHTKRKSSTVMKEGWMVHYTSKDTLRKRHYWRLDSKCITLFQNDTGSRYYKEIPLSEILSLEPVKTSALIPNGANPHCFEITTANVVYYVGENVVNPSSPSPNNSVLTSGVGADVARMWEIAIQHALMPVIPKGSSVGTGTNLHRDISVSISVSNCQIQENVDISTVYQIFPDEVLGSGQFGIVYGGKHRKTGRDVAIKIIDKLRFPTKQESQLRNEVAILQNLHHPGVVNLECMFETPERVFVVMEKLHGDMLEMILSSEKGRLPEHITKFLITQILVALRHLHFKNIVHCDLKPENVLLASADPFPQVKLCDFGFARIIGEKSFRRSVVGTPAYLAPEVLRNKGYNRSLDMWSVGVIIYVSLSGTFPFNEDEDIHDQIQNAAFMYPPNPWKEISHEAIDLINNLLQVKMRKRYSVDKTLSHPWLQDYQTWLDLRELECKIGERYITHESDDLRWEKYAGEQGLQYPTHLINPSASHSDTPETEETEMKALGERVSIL
- ASSAY SUMMARY: Kinase profiling PKD1
- Assay type: biochemical
- TEST CONDITIONS: 100 micromolar inhibitor concentration; 100 is no change
Lab note: write the figure by itself, no unit.

Below: 8 molecules and their reported residual kinase activity, PKD1.
INSERT INTO results (molecule, reading) VALUES
  ('O=C(Nc1nc2cc(O)ccc2s1)c1ccncc1 [Compound 03-11]', 74),
  ('COc1ccc2nc(NC(=O)c3ccccc3)sc2c1 [Compound 03-98]', 104),
  ('CC(=O)Nc1cccc(C(=O)Nc2nc3cc(O)ccc3s2)c1 [MS:LY-2-89]', 22),
  ('O=C(Nc1nc2ccc(O)cc2s1)c1ccncc1 [Compound 08-42]', 63),
  ('O=C(Nc1nc2ccc(F)cc2s1)c1ccccc1 [Compound 03-92]', 111),
  ('CC(=O)Nc1ccccc1C(=O)Nc1nc2ccc(O)cc2s1 [Compound 08-39]', 32),
  ('CC(=O)Nc1nc2cc(C)ccc2s1 [Compound 03-76]', 89),
  ('O=C(Nc1nc2ccc(O)cc2s1)c1ccccc1 [Compound 03-60]', 47);

Continue with the molecule presented below.
Entry O=C(Nc1nc2ccc(C(F)(F)F)cc2s1)c1ccccc1 [Compound 03-99] needs its residual kinase activity, PKD1 filled in; supply it.
114

----------
- TEST TARGET: TLK1 (Homo sapiens)
- Sequence (Q9UKI8 whole entry, species assumed): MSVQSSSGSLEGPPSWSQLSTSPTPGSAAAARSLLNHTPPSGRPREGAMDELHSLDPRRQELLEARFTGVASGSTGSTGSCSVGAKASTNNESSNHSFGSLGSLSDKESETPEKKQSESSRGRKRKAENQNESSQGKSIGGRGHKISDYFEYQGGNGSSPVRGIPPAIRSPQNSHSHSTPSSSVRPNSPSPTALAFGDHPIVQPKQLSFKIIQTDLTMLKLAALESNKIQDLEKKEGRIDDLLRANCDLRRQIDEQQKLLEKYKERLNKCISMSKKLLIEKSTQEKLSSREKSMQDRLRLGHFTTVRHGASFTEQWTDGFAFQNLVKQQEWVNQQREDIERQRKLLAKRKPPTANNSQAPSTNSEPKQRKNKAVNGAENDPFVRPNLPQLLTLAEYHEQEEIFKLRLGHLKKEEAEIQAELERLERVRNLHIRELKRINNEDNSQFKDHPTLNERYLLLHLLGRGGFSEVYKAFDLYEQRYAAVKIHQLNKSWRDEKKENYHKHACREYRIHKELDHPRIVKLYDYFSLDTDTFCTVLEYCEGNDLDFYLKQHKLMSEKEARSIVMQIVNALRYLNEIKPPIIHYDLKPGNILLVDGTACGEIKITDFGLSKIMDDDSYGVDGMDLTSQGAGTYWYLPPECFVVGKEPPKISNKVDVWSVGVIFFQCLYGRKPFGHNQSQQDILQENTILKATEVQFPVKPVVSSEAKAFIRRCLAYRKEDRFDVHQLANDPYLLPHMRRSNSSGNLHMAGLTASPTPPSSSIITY
- ASSAY SUMMARY: Kinase profiling TLK1
- Format: biochemical
- TEST CONDITIONS: 100 micromolar inhibitor concentration; 100 is no change
Form field: residual kinase activity, TLK1 (one value per entry).

INSERT INTO measurements (compound, reading) VALUES
  ('O=C(Nc1nc2ccc(O)cc2s1)c1ccncc1 [Compound 08-42]', 97),
  ('O=C(Nc1nc2cc(O)ccc2s1)c1cccnc1 [Compound 03-33]', 97);

Given the compound O=C(Nc1nc2cc(O)ccc2s1)c1ccccn1 [Compound 03-13] , write its reported residual kinase activity, TLK1.
99

----------
This section presents compounds with their documented remaining activity at 100 µM values.
- TEST TARGET: PRK2 (Homo sapiens)
- Sequence (Q16513 whole entry, species assumed): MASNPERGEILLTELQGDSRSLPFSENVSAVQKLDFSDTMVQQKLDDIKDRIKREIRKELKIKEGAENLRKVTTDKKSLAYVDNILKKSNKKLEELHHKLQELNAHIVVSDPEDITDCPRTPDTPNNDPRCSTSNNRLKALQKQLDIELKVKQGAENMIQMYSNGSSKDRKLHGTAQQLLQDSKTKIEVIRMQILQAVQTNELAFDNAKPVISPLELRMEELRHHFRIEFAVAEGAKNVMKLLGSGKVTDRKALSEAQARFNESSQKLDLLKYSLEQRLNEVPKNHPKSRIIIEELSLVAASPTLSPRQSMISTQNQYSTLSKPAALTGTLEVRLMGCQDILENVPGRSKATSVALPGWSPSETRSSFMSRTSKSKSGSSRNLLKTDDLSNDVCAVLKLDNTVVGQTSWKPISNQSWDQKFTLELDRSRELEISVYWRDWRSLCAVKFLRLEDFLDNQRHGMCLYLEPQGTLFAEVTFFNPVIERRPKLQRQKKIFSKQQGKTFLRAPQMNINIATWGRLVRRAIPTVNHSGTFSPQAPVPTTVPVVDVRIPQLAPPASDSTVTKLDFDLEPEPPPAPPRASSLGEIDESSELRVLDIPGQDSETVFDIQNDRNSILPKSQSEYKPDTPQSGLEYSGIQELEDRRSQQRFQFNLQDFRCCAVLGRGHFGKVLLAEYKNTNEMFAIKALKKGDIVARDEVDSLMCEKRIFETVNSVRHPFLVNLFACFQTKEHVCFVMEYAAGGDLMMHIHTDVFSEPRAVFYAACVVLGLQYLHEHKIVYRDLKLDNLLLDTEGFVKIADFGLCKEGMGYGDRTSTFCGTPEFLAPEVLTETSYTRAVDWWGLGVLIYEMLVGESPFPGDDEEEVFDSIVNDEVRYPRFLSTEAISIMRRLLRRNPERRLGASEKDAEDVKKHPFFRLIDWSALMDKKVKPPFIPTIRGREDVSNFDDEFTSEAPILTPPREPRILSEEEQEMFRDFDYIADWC
- ASSAY SUMMARY: Kinase profiling PRK2
- Format: biochemical
- TEST CONDITIONS: 100 micromolar inhibitor concentration; 100 is no change; read-out: residual kinase activity, PRK2
Express your answer in %, writing the number without its unit.

Examples with their reported remaining activity at 100 µM follow.
INSERT INTO assay_data (substance_smiles, readout_kind, reading) VALUES
  ('CC(=O)Nc1nc2cc(F)ccc2s1', 'remaining activity at 100 µM', 74),
  ('COc1ccc2sc(NC(C)=O)nc2c1', 'remaining activity at 100 µM', 67),
  ('CC(=O)Nc1nc2ccc(C(F)(F)F)cc2s1', 'remaining activity at 100 µM', 94),
  ('CC(=O)Nc1nc2ccc(C#N)cc2s1', 'remaining activity at 100 µM', 70);

Below: the item to evaluate.
Provide measured remaining activity at 100 µM value, entry: "CC(=O)Nc1nc2ccc(O)cc2s1"
36

----------
Reported residual kinase activity, PKA values for a set of molecules
- TEST TARGET: PKA (Homo sapiens, UniProt P17612)
- ASSAY SUMMARY: Kinase profiling PKA
- Type: biochemical
- TEST CONDITIONS: 100 micromolar inhibitor concentration; 100 is no change
Reply: number alone, nothing else.

INSERT INTO results (molecule, reading) VALUES
  ('CC(=O)NC(C)C(=O)Nc1nc2ccc(C(F)(F)F)cc2s1 (stereo not drawn)', 104),
  ('O=C(Nc1nc2ccc(O)cc2s1)c1ccccc1', 97),
  ('COc1ccc2sc(NC(=O)c3cccc(C(N)=O)c3)nc2c1', 101),
  ('CC(=O)Nc1cccc(C(=O)Nc2nc3ccc(O)cc3s2)c1', 90),
  ('O=C(Nc1nc2ccc(O)cc2s1)c1cccnc1', 92),
  ('COc1ccc2nc(NC(=O)c3ccccc3)sc2c1', 90),
  ('O=C(Nc1nc2cc(O)ccc2s1)c1ccccc1', 93),
  ('CC(=O)Nc1nc2cc(C)ccc2s1', 105);

// Input: "CC(=O)Nc1ccc(C(=O)Nc2nc3ccc(O)cc3s2)cc1" . Output its residual kinase activity, PKA only.
90

State its residual kinase activity, PKA for this molecule: "COc1ccc2sc(NC(=O)c3cccc(NC(C)=O)c3)nc2c1"
98

Read the entry "COC(=O)c1cccc(C(=O)Nc2nc3cc(OC)ccc3s2)c1" and write its reported residual kinase activity, PKA.
92

----------
Parameter residual kinase activity, AMPK (hum): see the listing below.
- Test system: AMPK (hum)
- ASSAY SUMMARY: Kinase profiling AMPK (hum)
- Type: biochemical, human
- TEST CONDITIONS: 100 micromolar inhibitor concentration; 100 is no change

Consider the worked cases shown below.
INSERT INTO assay_data (substance_smiles, reading) VALUES
  ('COC(=O)c1cccc(C(=O)Nc2nc3ccc(C(F)(F)F)cc3s2)c1', 71),
  ('CC(=O)Nc1nc2cc(C)ccc2s1', 69);

Consider the record given below.
Dear colleague, please send me the reported residual kinase activity, AMPK (hum) for "COC(=O)c1cccc(C(=O)Nc2nc3ccc(F)cc3s2)c1" when you can.
69

----------
- TEST TARGET: PAK2 (Homo sapiens)
- Sequence (Q13177 whole entry, species assumed): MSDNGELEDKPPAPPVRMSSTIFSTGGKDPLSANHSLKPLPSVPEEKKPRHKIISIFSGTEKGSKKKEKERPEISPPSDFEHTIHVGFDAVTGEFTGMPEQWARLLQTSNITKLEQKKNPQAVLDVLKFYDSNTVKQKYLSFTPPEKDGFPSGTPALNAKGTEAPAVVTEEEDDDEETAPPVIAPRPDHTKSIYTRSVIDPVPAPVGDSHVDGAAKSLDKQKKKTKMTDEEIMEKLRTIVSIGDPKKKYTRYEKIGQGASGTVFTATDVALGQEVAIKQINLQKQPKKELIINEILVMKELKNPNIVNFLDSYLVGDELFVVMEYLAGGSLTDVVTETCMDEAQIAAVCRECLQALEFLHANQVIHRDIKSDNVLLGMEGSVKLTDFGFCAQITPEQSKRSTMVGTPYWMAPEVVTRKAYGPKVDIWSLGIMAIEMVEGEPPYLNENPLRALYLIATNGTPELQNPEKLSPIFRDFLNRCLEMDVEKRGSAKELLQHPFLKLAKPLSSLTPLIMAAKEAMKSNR
- ASSAY SUMMARY: Kinase profiling PAK2
- Assay type: biochemical
- TEST CONDITIONS: 100 micromolar inhibitor concentration; 100 is no change
READOUT KIND: residual kinase activity, PAK2
Keep the answer to the number alone.

INSERT INTO assay_data (substance_smiles, reading) VALUES
  ('O=C(Nc1nc2cc(O)ccc2s1)c1ccncc1', 88),
  ('O=C(Nc1nc2ccc(O)cc2s1)c1cccnc1', 85);

# next molecule below
Answer with reported residual kinase activity, PAK2 of "O=C(Nc1nc2cc(O)ccc2s1)c1cccnc1"
114

----------
- TEST TARGET: HIPK3 (Homo sapiens)
- Sequence (Q9H422 whole entry, species assumed): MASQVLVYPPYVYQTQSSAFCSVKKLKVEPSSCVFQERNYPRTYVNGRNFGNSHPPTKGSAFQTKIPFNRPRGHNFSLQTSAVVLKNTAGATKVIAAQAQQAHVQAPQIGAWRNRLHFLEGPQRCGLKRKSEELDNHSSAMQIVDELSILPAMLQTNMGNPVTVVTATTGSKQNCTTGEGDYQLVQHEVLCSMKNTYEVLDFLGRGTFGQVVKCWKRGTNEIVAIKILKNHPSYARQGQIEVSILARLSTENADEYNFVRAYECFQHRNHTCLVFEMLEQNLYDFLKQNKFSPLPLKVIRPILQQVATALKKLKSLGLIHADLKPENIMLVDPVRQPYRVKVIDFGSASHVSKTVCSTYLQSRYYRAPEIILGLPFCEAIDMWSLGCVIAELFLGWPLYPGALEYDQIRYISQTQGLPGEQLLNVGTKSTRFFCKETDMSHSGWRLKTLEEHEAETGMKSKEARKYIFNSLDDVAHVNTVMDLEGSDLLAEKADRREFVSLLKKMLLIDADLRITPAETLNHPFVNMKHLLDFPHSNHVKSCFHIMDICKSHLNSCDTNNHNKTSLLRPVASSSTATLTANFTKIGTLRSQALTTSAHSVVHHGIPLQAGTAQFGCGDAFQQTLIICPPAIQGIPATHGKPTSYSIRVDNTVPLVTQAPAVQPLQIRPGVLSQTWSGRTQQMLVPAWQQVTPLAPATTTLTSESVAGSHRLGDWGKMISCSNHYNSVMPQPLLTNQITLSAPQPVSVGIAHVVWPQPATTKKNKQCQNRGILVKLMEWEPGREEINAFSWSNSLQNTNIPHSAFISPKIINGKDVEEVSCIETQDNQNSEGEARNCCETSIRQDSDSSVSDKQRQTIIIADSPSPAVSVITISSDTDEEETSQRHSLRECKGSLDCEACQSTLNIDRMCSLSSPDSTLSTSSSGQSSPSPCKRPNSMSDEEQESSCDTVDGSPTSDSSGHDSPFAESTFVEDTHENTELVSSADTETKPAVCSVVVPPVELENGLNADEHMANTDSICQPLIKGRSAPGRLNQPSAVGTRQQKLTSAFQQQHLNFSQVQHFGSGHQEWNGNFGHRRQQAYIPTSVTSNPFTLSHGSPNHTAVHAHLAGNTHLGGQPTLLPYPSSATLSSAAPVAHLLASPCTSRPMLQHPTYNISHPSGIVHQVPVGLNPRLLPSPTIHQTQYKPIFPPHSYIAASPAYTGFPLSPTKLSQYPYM
- ASSAY SUMMARY: Kinase profiling HIPK3
- Type: biochemical
- TEST CONDITIONS: 100 micromolar inhibitor concentration; 100 is no change
READOUT KIND: residual kinase activity, HIPK3
# output: bare number, no unit

INSERT INTO assay_data (molecule, test_target, reading) VALUES
  ('O=C(Nc1nc2ccc(O)cc2s1)c1ccncc1 [Compound 08-42]', 'HIPK3 (Homo sapiens)', 90);

Please indicate residual kinase activity, HIPK3 recorded for O=C(Nc1nc2cc(O)ccc2s1)c1ccccn1 [Compound 03-13]
82

Assign residual kinase activity, HIPK3 to the following record: CC(=O)Nc1nc2cc(C)ccc2s1 [Compound 03-76]
79

State, in one line, measured residual kinase activity, HIPK3 of CC(=O)Nc1nc2ccccc2s1 [Compound 03-32]
78

----------
- TEST TARGET: p38d MAPK (Homo sapiens, UniProt O15264)
- Sequence (O15264 1-365): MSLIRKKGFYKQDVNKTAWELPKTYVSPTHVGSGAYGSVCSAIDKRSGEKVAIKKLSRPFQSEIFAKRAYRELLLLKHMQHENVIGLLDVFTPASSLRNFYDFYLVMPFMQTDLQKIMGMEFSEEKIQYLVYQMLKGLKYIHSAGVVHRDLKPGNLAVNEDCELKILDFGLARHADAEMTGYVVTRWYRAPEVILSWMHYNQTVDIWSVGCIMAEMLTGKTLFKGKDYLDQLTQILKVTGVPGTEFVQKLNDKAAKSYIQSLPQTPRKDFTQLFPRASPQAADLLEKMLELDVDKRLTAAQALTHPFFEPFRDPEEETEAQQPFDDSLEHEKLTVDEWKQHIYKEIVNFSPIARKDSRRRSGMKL
- ASSAY SUMMARY: Kinase profiling p38d MAPK
- Assay type: biochemical
- TEST CONDITIONS: 100 micromolar inhibitor concentration; 100 is no change
- Description: Any value less that 25 is considered to be highly significant inhibition.
READOUT KIND: residual kinase activity, p38d MAPK
The answer should be a number; do not append a unit.

INSERT INTO measurements (molecule, reading) VALUES
  ('CC(=O)NC(C)C(=O)Nc1nc2ccc(C(F)(F)F)cc2s1 (stereo not shown)', 102),
  ('O=C(Nc1nc2ccc(O)cc2s1)c1cccnc1', 62),
  ('CC(=O)Nc1nc2cc(C)ccc2s1', 85),
  ('O=C(Nc1nc2ccc(O)cc2s1)c1ccccn1', 77),
  ('COc1ccc2sc(NC(=O)c3cccc(NC(C)=O)c3)nc2c1', 72);

Please find the next molecule below.
Note residual kinase activity, p38d MAPK for the molecule shown: "CC(=O)Nc1ccc(C(=O)Nc2nc3cc(O)ccc3s2)cc1"
75
